- test: NCI Yeast Anticancer Drug Screen. Data for the wt1 strain (AID 149)
- run parameters: S. cerevisiae wt1 strain (SPY 50644) growth inhibition; at 3.7 µM
This is part of a sample that, as a whole, favours compounds with a hit. Of some 79,000 tested, about 15% had one in any assay. Activity calls are given as the source filed them. Rule as the data show it: active = growth inhibition above about 70%; inactive = the rest.
Outcomes: t = active, f = inactive

compound	assigned class
CC/C(=C(\c1ccccc1)c1ccc(OCCN(C)C)cc1)c1ccccc1	f
O=C1C2C(C(=O)N1c1ccc(OCc3ccccc3)cc1)C1c3ccccc3C2C2CCCCN21 (stereo not drawn)	f
O=[n+]1c2ccc(Cl)cc2n([O-])c2ccc(Cl)cc21	f
N#CC(C(=O)Nc1ccccc1)C1=C(Cl)C(=O)c2ccccc2C1=O (stereo not drawn)	f
O=C(c1cc(Br)ccc1O)c1cc(Br)ccc1O	t
CCCCCCCCCCNC(=O)OCC	f
CCC(=O)OCCn1c2nc(=O)[nH]c(=O)c-2nc2cc(C)c(C)cc21	f
c1ccc2c(c1)C(=NCCCN1CCCCCC1)c1cccn1-2	f
CCC(C(=O)O)C1=C(c2ccccc2)CCc2ccccc21 (stereo not drawn)	f
CSC(=S)N/N=C(\C)c1cccc(C)n1	f
COc1ccccc1/C=C1\Sc2scc(-c3cccc([N+](=O)[O-])c3)[n+]2C1=O	t
COc1cccc2nc3ccccc3nc12	f
O=C(OCCN1CCCCCC1)C(c1ccsc1)C1CCCCC1 (stereo not drawn)	f
CC(=O)Nc1ccc(/C=C(\C#N)c2ccc(C)cc2)cc1	f
Oc1ccc(NCn2c(=S)sc3ccccc32)cc1	f
S=c1[nH]nc(Nc2ccc(Cl)cc2)s1	f
C(CCSC1=NCCN1)CSC1=NCCN1 (tested in a mixture with another compound)	f
O=C1C=CC(=O)N1c1ccc2c(c1)Cc1cc(NC(=O)C(F)(F)F)ccc1-2	f
COC(=O)c1cc(-c2ccc(C)cc2)[nH]c(=O)c1C#N	f
O=C1Nc2ccccc2/C1=C/COc1ccccc1	f
O=[N+]([O-])CC(SCc1ccccc1)c1ccc2c(c1)OCO2 (stereo not drawn)	f
CC(C)(C)c1nc2c(o1)C(=O)c1ccccc1C2=O	f
O=C(NCCCNCCCNC(=O)c1cc(-c2ccccc2)nc2ccccc12)c1cc(-c2ccccc2)nc2ccccc12	f

###

- test: NCI Yeast Anticancer Drug Screen. Data for the sgs1 mgt1 strain (AID 161)
- run parameters: S. cerevisiae sgs1 mgt1 strain, at 50.0 µM
About 79,000 compounds went through this panel and 15% of them were active in at least one assay; those are over-represented in the sample as a whole. Activity calls are given as the source filed them. No stated cut-off is given here; in the data, active means growth inhibition above about 70%; inactive means the rest.
Outcomes: y = active, n = inactive

molecule	assigned class
COc1ccc(N=C2C(=O)Nc3ccc(Br)cc32)cc1	n
CCOc1ccc2c(c1)c(CC(=O)O)cn2C	n
CN(C)c1nc2sc3c(c2c(=O)o1)CCCC3	n
CCCCCCCCCCCC1=C(O)C(=O)C=C(O)C1=O	n
Cc1cc(I)ccc1N	y
O=S(=O)(CCCl)c1ccccc1Cl	y
Cc1ccc(S(=O)(=O)Oc2cc(Cl)c(Cl)cc2Cl)cc1	n
O=C(Nc1ccccc1)OCCc1ccc(Cl)c(Cl)c1	y
CN1CCc2ccccc2C1Cc1ccccc1NC(=O)c1sc2ccccc2c1Cl (configuration not stated)	y
COC(=O)c1ccc(CCC2=CC(=O)C(Br)=CC2=O)cc1	n
CN1c2ccc(Cl)cc2C(=O)NC1c1ccc([N+](=O)[O-])s1 (configuration not stated)	y
COc1ccccc1N=NC(C(=O)c1ccccc1)C(=O)c1ccccc1	y

Sourced from PubChem BioAssay (NCI)
